// data source = patent US20230084927A1

Catalogue of molecules with associated EC50
Test system: SDH-KO-HRAS cells (SDHB-deficient)
EXPERIMENT SUMMARY: Cellular / differential toxicity assay (CellTiter-Glo, 3 days)
Assay type: cell-based, murine
CONDITION SUMMARY: Mus musculus, 72 h, toxicity, SDH-KO cells, 3 days, CellTiter-Glo; read-out: EC50 (uM) SDH-KO-HTAS-C17
Procedure: Identification of compounds that target specifically SDH-deficient cells was done by screening a library of small-molecule by using a differential toxicity screen with SDHB-proficient vs. SDHB-deficient cells (the […] cells were described in Cardaci 2015). […] Incubate for 3 days at 37° C. in 5% CO2 tissue culture incubator. • Day 4: Check viability of cells by adding CTG reagent and read luminescence in plate reader […]

Would you please look over these solved cases?
MOLECULE: CC1(C)Cc2nc3sc4c(NCCc5ccccc5)ncnc4c3cc2CO1
EC50: > 10 µM

MOLECULE: CC1(C)Cc2nc3sc4c(NCCOCCO)ncnc4c3cc2CO1
EC50: > 10 µM

MOLECULE: COCCOCCOCCOCCOC(=O)c1c2c(nc3sc4c(NCCc5ccc6[nH]cnc6c5)ncnc4c13)CC(C)(C)OC2
EC50: < 1 µM

MOLECULE: COc1ccc(CCNc2nc(C)nc3c2sc2nc4c(cc23)COC(C)(C)C4)cc1OC
EC50: 3 to 10 µM

MOLECULE: CCCCCNc1nc(C)nc2c1sc1nc3c(cc12)COC(C)(C)C3
EC50: > 10 µM

MOLECULE: COCCOCCOCCOCCN(C)Cc1c2c(nc3sc4c(NCCc5ccc6[nH]cnc6c5)ncnc4c13)CC(C)(C)OC2
EC50: < 1 µM

MOLECULE: CCCCN(CCCC)c1ncnc2c1sc1nc3c(cc12)COC(C)(C)C3
EC50: > 10 µM

MOLECULE: COc1cccc(CCNc2ncnc3c2sc2nc4c(cc23)COC(C)(C)C4)c1
EC50: 3 to 10 µM

MOLECULE: CCCCCCNc1nc(C)nc2c1sc1nc3c(cc12)COC(C)(C)C3
EC50: > 10 µM

MOLECULE: CC1(C)Cc2nc3sc4c(NCCC5CCCCO5)ncnc4c3cc2CO1 (centres unmarked)
EC50: 3 to 10 µM

According to the records, this molecule `CC1(C)Cc2nc3sc4c(NCCc5ccc6[nH]cnc6c5)ncnc4c3c(C(=O)O)c2CO1` displays EC50 of 3 to 10 µM

----------
Tested on: SDH-KO-HRAS cells (SDHB-deficient)
EXPERIMENT SUMMARY: Cellular / differential toxicity assay (CellTiter-Glo, 3 days)
Assay type: cell-based, murine
CONDITION SUMMARY: Mus musculus, 72 h, toxicity, SDH-KO cells, 3 days, CellTiter-Glo; read-out: EC50 (uM) SDH-KO-HTAS-C17
Catalogue of compounds with associated EC50

Would you please look over these solved cases?
COMPOUND: CC1(C)Cc2nc3sc4c(NCCc5ccccn5)ncnc4c3cc2CO1
EC50: 3 to 10 µM
--
COMPOUND: CC1(C)Cc2nc3sc4c(NCCc5ccc(N)c(N)c5)ncnc4c3cc2CO1
EC50: < 1 µM
--
COMPOUND: COCCOCCOCCOC(=O)c1c2c(nc3sc4c(NCCc5ccc6[nH]cnc6c5)ncnc4c13)CC(C)(C)OC2
EC50: 1 to 3 µM

According to the records, this compound CC(=O)OC(C)C(=O)Nc1ccc(CCNc2ncnc3c2sc2nc4c(cc23)COC(C)(C)C4)cc1N (stereo not drawn) displays EC50 of 1 to 3 µM

According to the records, this compound `Cn1cnc2cc(CCNc3ncnc4c3sc3nc5c(cc34)COC(C)(C)C5)ccc21` displays EC50 of < 1 µM

According to the records, this compound `CC1(C)Cc2nc3sc4c(N5CCCCC5)ncnc4c3cc2CO1` displays EC50 of > 10 µM

According to the records, this compound `COc1ccc(CCNC(=O)c2sc3nc4c(cc3c2NC(=O)C(F)(F)F)COC(C)(C)C4)cc1F` displays EC50 of 3 to 10 µM

According to the records, this compound CC(CNc1ncnc2c1sc1nc3c(cc12)COC(C)(C)C3)c1ccc2c(c1)ncn2C (stereo not drawn) displays EC50 of 3 to 10 µM

According to the records, this compound `Cc1nc(NCCc2ccc3[nH]cnc3c2)c2sc3nc4c(cc3c2n1)COC(C)(C)C4` displays EC50 of 3 to 10 µM

----------
Catalogue of compounds with associated EC50
System: SDH-KO-HRAS cells (SDHB-deficient)
EXPERIMENT SUMMARY: Cellular / differential toxicity assay (CellTiter-Glo, 3 days)
Assay type: cell-based, murine
CONDITION SUMMARY: Mus musculus, 72 h, toxicity, SDH-KO cells, 3 days, CellTiter-Glo; read-out: EC50 (uM) SDH-KO-HTAS-C17
Protocol: Identification of compounds that target specifically SDH-deficient cells was done by screening a library of small-molecule by using a differential toxicity screen with SDHB-proficient vs. SDHB-deficient cells (the […] cells were described in Cardaci 2015). […] Incubate for 3 days at 37° C. in 5% CO2 tissue culture incubator. • Day 4: Check viability of cells by adding CTG reagent and read luminescence in plate reader […]

COMPOUND: CC1(C)Cc2nc3sc4c(NCCc5ccc(-c6cnco6)cc5)ncnc4c3cc2CO1
RECORDED RESULT: > 10 µM
//
COMPOUND: CC(=O)CN(C(=O)C(F)(F)F)c1ccc(CCNc2ncnc3c2sc2nc4c(cc23)COC(C)(C)C4)cc1F
RECORDED RESULT: < 1 µM
//
COMPOUND: CCC(C)Nc1ncnc2c1sc1nc3c(cc12)COC(C)(C)C3 (centres unmarked)
RECORDED RESULT: > 10 µM
//
COMPOUND: COc1ccc(CCNc2ncnc3c2sc2nc(C=C(C)C)c(CCl)cc23)cc1F
RECORDED RESULT: 1 to 3 µM
//
COMPOUND: CN1C(=O)CCC1n1cnc2ccc(CCNc3ncnc4c3sc3nc5c(cc34)COC(C)(C)C5)cc21 (centres unmarked)
RECORDED RESULT: < 1 µM

According to the records, this compound `CC1(C)Cc2nc3sc4c(NCCc5ccc(NC(N)=O)cc5)ncnc4c3cc2CO1` displays EC50 of < 1 µM

According to the records, this compound `COCCCCc1c2c(nc3sc4c(NCCc5ccc6[nH]cnc6c5)ncnc4c13)CC(C)(C)OC2` displays EC50 of < 1 µM

According to the records, this compound `CCCCNc1nc(C)nc2c1sc1nc3c(cc12)COC(C)(C)C3` displays EC50 of 3 to 10 µM

----------
Tested on: SDH-KO-HRAS cells (SDHB-deficient)
EXPERIMENT SUMMARY: Cellular / differential toxicity assay (CellTiter-Glo, 3 days)
Format: cell-based, murine
CONDITION SUMMARY: Mus musculus, 72 h, toxicity, SDH-KO cells, 3 days, CellTiter-Glo; read-out: EC50 (uM) SDH-KO-HTAS-C17
Catalogue of molecules with associated EC50

Would you please look over these solved cases?
MOLECULE: CC1(C)Cc2nc3sc4c(NCCc5ccc6[nH]cnc6c5)ncnc4c3c(COc3ccccc3)c2CO1 [Compound 322]
RECORDED RESULT: < 1 µM
//
MOLECULE: Cc1nc(NCc2ccccc2)c2sc3nc4c(cc3c2n1)COC(C)(C)C4 [Compound 254]
RECORDED RESULT: > 10 µM
//
MOLECULE: CC1(C)Cc2nc3sc4c(NCCCO)ncnc4c3cc2CO1 [Compound 238]
RECORDED RESULT: > 10 µM
//
MOLECULE: CC1(C)Cc2nc3sc4c(NCCc5ccc(F)c(F)c5)ncnc4c3cc2CO1 [Compound 120]
RECORDED RESULT: > 10 µM
//
MOLECULE: CC1(C)Cc2nc3sc4c(NCCc5ccc6[nH]c(-c7ccccc7)nc6c5)ncnc4c3cc2CO1 [Compound 190]
RECORDED RESULT: 1 to 3 µM

Query molecule follows.
The observed EC50 for CC1CCC(C)N(c2ncnc3c2sc2nc4c(cc23)COC(C)(C)C4)C1 (stereo not drawn) [Compound 236] when tested with SDH-KO-HRAS cells (SDHB-deficient) stands at > 10 µM

----------
Catalogue of compounds with associated EC50
Tested on: SDH-KO-HRAS cells (SDHB-deficient)
EXPERIMENT SUMMARY: Cellular / differential toxicity assay (CellTiter-Glo, 3 days)
Assay type: cell-based, murine
CONDITION SUMMARY: Mus musculus, 72 h, toxicity, SDH-KO cells, 3 days, CellTiter-Glo; read-out: EC50 (uM) SDH-KO-HTAS-C17
Method: Identification of compounds that target specifically SDH-deficient cells was done by screening a library of small-molecule by using a differential toxicity screen with SDHB-proficient vs. SDHB-deficient cells (the […] cells were described in Cardaci 2015). […] Incubate for 3 days at 37° C. in 5% CO2 tissue culture incubator. • Day 4: Check viability of cells by adding CTG reagent and read luminescence in plate reader […]

Would you please look over these solved cases?
TEST SMILES: CNc1ccc(CCN(C)c2ncnc3c2sc2nc4c(cc23)COC(C)(C)C4)cc1[N+](=O)[O-]
EC50: 3 to 10 µM
--
TEST SMILES: CC(C)C(=O)Nc1ccc(CCNc2ncnc3c2sc2nc4c(cc23)COC(C)(C)C4)cc1[N+](=O)[O-]
EC50: 1 to 3 µM
--
TEST SMILES: COc1ccc(CCNc2ncnc3c2sc2nc4c(cc23)COC(C)(C)C4)cc1
EC50: < 1 µM
--
TEST SMILES: CCOC(=O)c1c2c(nc3sc4c(NCCc5ccc6[nH]cnc6c5)ncnc4c13)CC(C)(C)OC2
EC50: < 1 µM

According to the records, this compound `CC(=O)OCc1nc2cc(CCNc3ncnc4c3sc3nc5c(cc34)COC(C)(C)C5)ccc2[nH]1` displays EC50 of < 1 µM

According to the records, this compound `CCCCCCNc1ncnc2c1sc1nc3c(cc12)COC(C)(C)C3` displays EC50 of > 10 µM

According to the records, this compound `CC1(C)Cc2nc3sc4c(NN)ncnc4c3cc2CO1` displays EC50 of > 10 µM

According to the records, this compound `CC1(C)Cc2nc3sc4c(NCCc5ccc6[nH]c(N)nc6c5)ncnc4c3cc2CO1` displays EC50 of < 1 µM

According to the records, this compound `CC1(C)Cc2nc3sc4c(NCCc5ccc6[nH]cnc6c5)ncnc4c3c(-c3ccccc3)c2CO1` displays EC50 of < 1 µM
